Origin of the recorded values: ChEMBL document CHEMBL1268834

Target: Cannabinoid receptor 2 (Homo sapiens)
Sequence (P34972 whole entry): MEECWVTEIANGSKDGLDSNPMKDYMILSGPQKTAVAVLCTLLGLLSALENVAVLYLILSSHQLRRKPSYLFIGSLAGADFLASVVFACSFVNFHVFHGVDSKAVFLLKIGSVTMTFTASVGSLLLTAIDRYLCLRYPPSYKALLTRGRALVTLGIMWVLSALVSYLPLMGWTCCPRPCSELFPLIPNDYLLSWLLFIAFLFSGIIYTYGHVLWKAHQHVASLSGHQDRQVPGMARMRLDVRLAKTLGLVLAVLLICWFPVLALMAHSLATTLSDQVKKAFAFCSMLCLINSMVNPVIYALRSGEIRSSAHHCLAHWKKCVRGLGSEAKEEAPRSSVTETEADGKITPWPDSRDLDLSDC
Assay: Inhibition of beta-arrestin binding to recombinant cannabinoid CB2 receptor
List of Ki values.
Write it as a number; the unit nM goes unstated.

1) CC(NS(=O)(=O)C(F)(F)F)C1CCN(S(=O)(=O)c2cc3ccccc3n2S(=O)(=O)c2ccccc2F)CC1 (centres undefined)
0.4
2) Cn1c(S(=O)(=O)c2ccccc2F)c(S(=O)(=O)N2CCC(CNS(=O)(=O)C(F)(F)F)CC2)c2ccccc21
70
3) C[C@@H]1CN(S(=O)(=O)c2cc3ccccc3n2S(=O)(=O)c2ccccc2F)CC[C@@H]1CNS(=O)(=O)C(F)(F)F
1.5

We next turn to a different compound, shown below.
Ask: Missing value: Ki, Cannabinoid receptor 2 (Homo sapiens), entry O=S(=O)(c1ccccc1F)c1ncccc1S(=O)(=O)N1CCC(CNS(=O)(=O)C(F)(F)F)CC1 . Fill in?
Reply: 790

---

Assay: Selectivity ratio of Ki for recombinant cannabinoid CB1 receptor to Ki for recombinant cannabinoid CB2 receptor
List of Ratio Ki values.

Field: example entries. Status: answers known.
1. C[C@@H](NS(=O)(=O)C(F)(F)F)c1ccc(S(=O)(=O)n2cccc2S(=O)(=O)c2ccccc2F)cc1
962
2. O=S(=O)(c1cc2ccccc2n1S(=O)(=O)c1ccccc1F)N1CCC2(CC1)CN(S(=O)(=O)C(F)(F)F)C2
12
3. CN(C)c1ncccc1S(=O)(=O)n1c(S(=O)(=O)N2CCC(CNS(=O)(=O)C(F)(F)F)CC2)cc2ccccc21
126
4. C[C@@H](NS(=O)(=O)C(F)(F)F)c1ccc(S(=O)(=O)c2ccoc2S(=O)(=O)c2ccccc2F)cc1
2690

We next turn to a different compound, shown below.
Ask: Request the reported Ratio Ki associated with CC[C@]1(CNS(=O)(=O)C(F)(F)F)CCN(S(=O)(=O)c2cc3ccccc3n2S(=O)(=O)c2ccccc2F)C[C@H]1C
Reply: 630

---

List of Ratio Ki values.
Test: Selectivity ratio of Ki for recombinant cannabinoid CB1 receptor to Ki for recombinant cannabinoid CB2 receptor
Would you mind answering with just the numeric figure?

Field: example entries. Status: answers known.
1. O=S(=O)(c1cc2ccccc2n1S(=O)(=O)c1ccccc1F)N1CCC2(CC1)C[C@@H]2NS(=O)(=O)C(F)(F)F
413
2. C[C@H]1C[C@H](CNS(=O)(=O)C(F)(F)F)CCN1S(=O)(=O)c1cc2ccccc2n1S(=O)(=O)c1ccccc1F
334
3. C[C@@H](NS(=O)(=O)C(F)(F)F)c1ccc(S(=O)(=O)c2cc3ccccc3n2S(=O)(=O)c2ccccc2F)cc1
1340

We next turn to a different compound, shown below.
Ask: Request the reported Ratio Ki associated with O=S(=O)(c1cc2ccccc2n1S(=O)(=O)c1ccccc1F)N1C[C@@H]2[C@@H](CNS(=O)(=O)C(F)(F)F)[C@@H]2C1
Reply: 279
